Target: CX43 (connexin 43; recombinant human CX43) (Homo sapiens, UniProt P17302)
Construct: recombinant human CX43 from GenScript, immobilised on CM5 chip
Sequence (P17302 2-382): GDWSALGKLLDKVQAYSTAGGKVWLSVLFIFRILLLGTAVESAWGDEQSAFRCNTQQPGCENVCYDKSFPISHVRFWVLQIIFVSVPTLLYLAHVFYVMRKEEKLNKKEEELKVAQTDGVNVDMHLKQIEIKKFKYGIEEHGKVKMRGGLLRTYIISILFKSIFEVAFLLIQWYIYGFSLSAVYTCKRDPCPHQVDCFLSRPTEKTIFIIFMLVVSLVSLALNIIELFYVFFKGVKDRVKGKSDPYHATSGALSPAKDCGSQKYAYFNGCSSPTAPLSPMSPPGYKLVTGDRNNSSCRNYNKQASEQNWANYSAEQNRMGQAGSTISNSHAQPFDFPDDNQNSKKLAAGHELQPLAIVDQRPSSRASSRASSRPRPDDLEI
Assay: SPR, Biacore T200, CX43 immobilised on CM5 chip

COMPOUND	Kd / nM
NC(=O)c1ccc[n+]([C@@H]2O[C@H](COP(=O)([O-])OP(=O)(O)OC[C@H]3O[C@@H](n4cnc5c(N)ncnc54)[C@H](O)[C@@H]3O)[C@@H](O)[C@H]2O)c1 [NAD^+]	0.0142
